Just for reference, paper PMC3847553 is where these values come from.

measurement.target: mouse OX2R (Mus musculus, UniProt P58308)
Construct: expressed in transfected cells; host or cells: HEK; cells from GNF, San Diego
Sequence (P58308 whole entry): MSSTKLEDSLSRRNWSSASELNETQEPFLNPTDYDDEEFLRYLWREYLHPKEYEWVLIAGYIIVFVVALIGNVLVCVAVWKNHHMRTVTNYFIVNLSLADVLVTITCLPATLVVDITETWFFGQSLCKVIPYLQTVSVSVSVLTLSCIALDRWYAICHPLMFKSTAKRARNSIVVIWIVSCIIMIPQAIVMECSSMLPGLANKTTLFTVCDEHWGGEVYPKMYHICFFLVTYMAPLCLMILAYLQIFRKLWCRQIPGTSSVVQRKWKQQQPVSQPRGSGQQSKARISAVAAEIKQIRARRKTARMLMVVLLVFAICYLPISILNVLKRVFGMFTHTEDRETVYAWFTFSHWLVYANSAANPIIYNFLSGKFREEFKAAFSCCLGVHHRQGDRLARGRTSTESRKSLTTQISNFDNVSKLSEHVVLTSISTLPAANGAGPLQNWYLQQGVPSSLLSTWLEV
test: FLIPR orexin A-stimulated calcium accumulation, mouse OX2R
Assay type: cell-based
assay.conditions: HEK cells, antagonist incubation 2 h, read-out: pKi (converted)
# Ki listing for each entry below
quantity: Ki

INSERT INTO measurements (compound, quantity, experimental_result) VALUES
  ('COc1ccnc(N2CCC3(CCCN(Cc4c[nH]c5ccccc45)C3=O)CC2)n1', 'Ki', '55 nM'),
  ('CNC(=O)[C@@H](c1ccccc1)N1CCc2cc(OC)c(OC)cc2[C@@H]1CCc1ccc(C(F)(F)F)cc1', 'Ki', '8.13 nM'),
  ('Cc1ccc(-c2ncccn2)c(C(=O)N2C[C@H](COc3ccc(F)cn3)CC[C@H]2C)c1', 'Ki', '1.45 nM'),
  ('Cc1nc(C(=O)N2CCCC[C@H]2CNC(=O)c2cccc3occc23)c(-c2ccc(F)cc2)s1', 'Ki', '1.17 nM');
